- assayed.system: Jak2 (a.a. 828-1132) (Homo sapiens, UniProt O60674)
- Construct: Jak2 (a.a. 828-1132); His tag (N); made in house; host or cells: insect cells (baculovirus)
- Sequence (O60674 828-1132): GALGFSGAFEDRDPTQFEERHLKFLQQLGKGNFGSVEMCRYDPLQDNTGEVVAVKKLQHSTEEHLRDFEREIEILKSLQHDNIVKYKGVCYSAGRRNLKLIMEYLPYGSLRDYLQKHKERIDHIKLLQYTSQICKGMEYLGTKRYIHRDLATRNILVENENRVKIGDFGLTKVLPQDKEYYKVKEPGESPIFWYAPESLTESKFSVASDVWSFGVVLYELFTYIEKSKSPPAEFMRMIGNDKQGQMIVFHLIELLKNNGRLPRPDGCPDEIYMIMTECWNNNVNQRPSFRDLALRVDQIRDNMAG
- assay.text: In vitro JAK kinase assay (HTRF, phosphorylation of biotinylated peptide), JAK2
- Format: biochemical
- run.conditions: 1 mM ATP; Examples 92-162; read-out: JAK2 IC50 (nM) @ 1 mM ATP
Entries annotated with measured IC50

COCC1CN(C(=O)c2ccc(C#N)cc2F)CCN1CC(CC#N)n1cc(-c2ncnc3[nH]ccc23)cn1 (single isomer, unassigned) [Example 157—peak 1] ... > 100 nM

For the compound shown here, N#CCC(C1CCN(c2cc(Oc3cccc(F)c3)ncn2)CC1)n1cc(-c2ncnc3[nH]ccc23)cn1 (stereo not shown) , give the reported IC50.
< 20 nM

For the compound shown here, N#CCC(CN1CCCN(C(=O)c2ccc(N)cc2F)CC1)n1cc(-c2ncnc3[nH]ccc23)cn1 (stereo not shown) , give the reported IC50.
> 100 nM

For the compound shown here, CCC(CN1CCN(S(=O)(=O)c2cccc(C)n2)CC1)n1cc(-c2ncnc3[nH]ccc23)cn1 (stereo not shown) , give the reported IC50.
20 to 50 nM

Measured values drawn from patent US9249145B2 for this set.
